Hello, the source for this data is patent US20250051344A1, in case you need it.

- Tgt: SMARCA2 (Homo sapiens, UniProt P51531)
- Construct: endogenous in cells
- Sequence (P51531 whole entry, species assumed): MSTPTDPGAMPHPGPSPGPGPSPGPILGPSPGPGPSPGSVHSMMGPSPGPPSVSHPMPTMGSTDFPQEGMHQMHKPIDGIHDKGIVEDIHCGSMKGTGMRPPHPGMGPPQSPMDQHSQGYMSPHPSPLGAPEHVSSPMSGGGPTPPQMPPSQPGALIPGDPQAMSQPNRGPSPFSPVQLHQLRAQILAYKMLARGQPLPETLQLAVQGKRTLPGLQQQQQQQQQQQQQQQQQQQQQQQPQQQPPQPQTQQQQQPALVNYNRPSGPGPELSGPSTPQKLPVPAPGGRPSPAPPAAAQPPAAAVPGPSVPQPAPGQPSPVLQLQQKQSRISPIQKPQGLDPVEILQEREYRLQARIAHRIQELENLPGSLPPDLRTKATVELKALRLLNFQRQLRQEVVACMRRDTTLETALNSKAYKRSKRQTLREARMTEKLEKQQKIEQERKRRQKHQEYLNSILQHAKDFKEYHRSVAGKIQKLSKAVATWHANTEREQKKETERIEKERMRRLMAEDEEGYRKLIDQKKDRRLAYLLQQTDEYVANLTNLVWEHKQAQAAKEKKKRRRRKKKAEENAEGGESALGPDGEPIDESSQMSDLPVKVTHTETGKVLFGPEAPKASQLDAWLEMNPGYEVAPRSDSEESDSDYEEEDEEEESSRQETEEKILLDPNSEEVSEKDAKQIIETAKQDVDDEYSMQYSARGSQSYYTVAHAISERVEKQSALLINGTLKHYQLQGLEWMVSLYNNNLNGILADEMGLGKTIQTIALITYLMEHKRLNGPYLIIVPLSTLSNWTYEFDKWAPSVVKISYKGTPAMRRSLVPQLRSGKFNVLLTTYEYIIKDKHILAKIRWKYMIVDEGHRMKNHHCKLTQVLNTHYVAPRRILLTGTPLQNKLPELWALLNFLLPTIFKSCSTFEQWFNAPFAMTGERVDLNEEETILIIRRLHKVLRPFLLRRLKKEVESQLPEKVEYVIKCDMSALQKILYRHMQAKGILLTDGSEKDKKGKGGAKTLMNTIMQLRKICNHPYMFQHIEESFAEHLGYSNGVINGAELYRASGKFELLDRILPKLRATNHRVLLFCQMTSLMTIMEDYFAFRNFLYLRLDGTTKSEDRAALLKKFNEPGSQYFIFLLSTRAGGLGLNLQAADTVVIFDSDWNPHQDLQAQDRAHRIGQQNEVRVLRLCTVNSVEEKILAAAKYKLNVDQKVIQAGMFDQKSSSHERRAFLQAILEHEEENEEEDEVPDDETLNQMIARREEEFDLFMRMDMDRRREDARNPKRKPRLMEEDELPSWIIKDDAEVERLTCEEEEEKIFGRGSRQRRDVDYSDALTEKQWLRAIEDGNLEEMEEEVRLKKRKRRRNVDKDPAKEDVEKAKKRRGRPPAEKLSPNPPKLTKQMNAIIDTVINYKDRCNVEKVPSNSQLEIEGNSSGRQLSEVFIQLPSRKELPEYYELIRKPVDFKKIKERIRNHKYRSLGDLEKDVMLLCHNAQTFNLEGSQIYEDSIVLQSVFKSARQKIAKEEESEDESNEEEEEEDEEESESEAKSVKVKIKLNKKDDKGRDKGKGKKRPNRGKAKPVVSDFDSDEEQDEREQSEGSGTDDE
- Method: SMARCA2 Cellular Degradation Assay (Western blot analysis on Jess platform)
- Type: cell-based
- Experimental context: cellular degradation
Listing of recorded Dmax by entry.
Numeric only. Scale: %

Consider the reported Dmax for these compounds:
Compound	Dmax, %
O=C1CC[C@H](c2ccc(N3CCC(CN4CC5(C4)CN(C(=O)C4(Oc6ccccc6Cl)CCN(c6cnnc(-c7ccccc7O)c6)CC4)C5)CC3)cc2)C(=O)N1 [Example 119]	89.2
O=C1CCC(c2ccc(N3CCC(C(=O)N4CC5(C4)CN(C(=O)C4(c6ccccc6)CCN(c6cnnc(-c7ccccc7O)c6)CC4)C5)CC3)cc2)C(=O)N1 (racemic) [Example 20]	67.5

Exercise: // query Dmax value for entry O=C1CC[C@H](c2ccc(N3CCC(CN4CC5CCCC(C4)N(C(=O)C4(c6ccccc6)CCN(c6cnnc(-c7ccccc7O)c6)CC4)C5)CC3)cc2)C(=O)N1 (stereo partly drawn) [Example 45]
Key: 29.5

---

- Tgt: SMARCA2 (Homo sapiens, UniProt P51531)
- Construct: endogenous in cells
- Method: SMARCA2 Cellular Degradation Assay (Western blot analysis on Jess platform)
- Assay type: cell-based
- Experimental context: cellular degradation
# strict inequality: Dmax < 90% yields Y, everything else yields N

Consider the worked cases shown below.
Compound	Class
COC1(C(=O)N2CC3(CN(CCC4CCN(c5ccc(C6CCC(=O)NC6=O)cc5)CC4)C3)C2)CCN(c2cnnc(-c3ccccc3O)c2)CC1 (racemic) [Example 82]	Y
Cc1ccnn1C1(C(=O)N(C)C2CCN(CCC3CCN(c4cccc5c4n(C)c(=O)n5C4CCC(=O)NC4=O)CC3)CC2)CCN(c2cnnc(-c3ccccc3O)c2)CC1 (racemic) [Example 61]	N

Now look at this entry.
Exercise: Quick check: Dmax of COC1(C(=O)N(C)C2CCN(CCC3CCN(c4ccc(C5CCC(=O)NC5=O)c(F)c4)CC3)CC2)CCN(c2cnnc(-c3ccccc3O)c2)CC1 (racemic) [Example 71] under 90%?
Key: Y

---

- Tgt: SMARCA4 (Homo sapiens)
- Construct: endogenous in cells
- Sequence (P51532 whole entry, species assumed): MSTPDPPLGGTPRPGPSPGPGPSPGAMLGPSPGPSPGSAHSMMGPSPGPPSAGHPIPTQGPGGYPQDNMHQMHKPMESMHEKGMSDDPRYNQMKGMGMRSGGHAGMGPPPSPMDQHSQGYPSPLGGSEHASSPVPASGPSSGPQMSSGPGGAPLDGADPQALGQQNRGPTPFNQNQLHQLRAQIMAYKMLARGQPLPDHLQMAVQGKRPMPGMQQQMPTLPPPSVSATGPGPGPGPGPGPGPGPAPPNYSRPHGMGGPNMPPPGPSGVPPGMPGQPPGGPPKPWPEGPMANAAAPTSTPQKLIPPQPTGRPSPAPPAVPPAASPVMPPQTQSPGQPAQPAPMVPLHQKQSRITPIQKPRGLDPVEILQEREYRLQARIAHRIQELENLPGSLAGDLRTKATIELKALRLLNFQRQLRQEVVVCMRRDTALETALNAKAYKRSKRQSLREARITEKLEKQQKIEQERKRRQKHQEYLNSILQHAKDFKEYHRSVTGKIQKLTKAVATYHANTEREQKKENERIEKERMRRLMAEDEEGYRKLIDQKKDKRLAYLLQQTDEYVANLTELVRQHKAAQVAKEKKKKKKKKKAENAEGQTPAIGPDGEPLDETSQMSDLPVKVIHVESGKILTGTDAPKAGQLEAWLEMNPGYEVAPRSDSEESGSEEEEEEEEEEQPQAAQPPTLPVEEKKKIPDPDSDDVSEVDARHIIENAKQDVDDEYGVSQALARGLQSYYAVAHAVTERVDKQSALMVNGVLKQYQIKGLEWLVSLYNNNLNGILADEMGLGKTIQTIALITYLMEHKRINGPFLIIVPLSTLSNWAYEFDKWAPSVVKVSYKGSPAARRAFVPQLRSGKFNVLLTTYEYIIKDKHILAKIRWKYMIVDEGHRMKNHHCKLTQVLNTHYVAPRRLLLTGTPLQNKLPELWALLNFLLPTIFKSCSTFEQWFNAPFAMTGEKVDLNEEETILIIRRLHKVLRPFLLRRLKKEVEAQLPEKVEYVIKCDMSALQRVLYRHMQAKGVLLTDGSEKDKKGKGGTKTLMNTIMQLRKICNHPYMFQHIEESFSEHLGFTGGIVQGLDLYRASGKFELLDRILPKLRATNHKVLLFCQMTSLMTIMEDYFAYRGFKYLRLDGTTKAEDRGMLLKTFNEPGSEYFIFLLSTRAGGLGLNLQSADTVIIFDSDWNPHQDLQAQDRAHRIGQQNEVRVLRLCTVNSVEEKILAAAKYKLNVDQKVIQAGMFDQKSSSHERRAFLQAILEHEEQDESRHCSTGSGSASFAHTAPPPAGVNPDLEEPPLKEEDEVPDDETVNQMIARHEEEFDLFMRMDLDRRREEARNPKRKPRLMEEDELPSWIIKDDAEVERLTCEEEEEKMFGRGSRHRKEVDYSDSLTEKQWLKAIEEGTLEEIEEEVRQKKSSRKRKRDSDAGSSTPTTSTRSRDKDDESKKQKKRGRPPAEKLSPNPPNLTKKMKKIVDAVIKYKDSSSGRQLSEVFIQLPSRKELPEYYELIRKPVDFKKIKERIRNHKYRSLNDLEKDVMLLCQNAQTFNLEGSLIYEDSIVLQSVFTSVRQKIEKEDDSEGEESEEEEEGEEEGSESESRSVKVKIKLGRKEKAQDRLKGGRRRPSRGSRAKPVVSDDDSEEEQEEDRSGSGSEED
- Method: Cellular degradation assay, SMARCA4 (Table 1)
- Assay type: cell-based
Listing of recorded Dmax by entry.
Numeric only. Scale: %

Consider the reported Dmax for these molecules:
Molecule	Tgt	Endpoint unit	Quantitative result
O=C1CC[C@H](c2ccc(N3CCC4(CC3)CC(N[C@H]3CC[C@H](NC(=O)C5(c6ccccc6)CCN(c6cnnc(-c7ccccc7O)c6)CC5)CC3)CO4)cc2)C(=O)N1 (mixture of isomers)	SMARCA4 (Homo sapiens)	%	62.2
O=C1CC[C@H](c2ccc(N3CCC(CN4CCC(C5CCN(C(=O)C6(c7ccccc7)CCN(c7cnnc(-c8ccccc8O)c7)CC6)CC5)C4)CC3)cc2)C(=O)N1 (stereo partly drawn)	SMARCA4 (Homo sapiens)	%	16.3
O=C1CC[C@H](c2ccc(N3CCC(CN4CCCC5C4CCCN5C(=O)C4(c5ccccc5)CCN(c5cnnc(-c6ccccc6O)c5)CC4)CC3)cc2)C(=O)N1 (stereo partly drawn)	SMARCA4 (Homo sapiens)	%	41
O=C1CC[C@@H](c2ccc(N3CCC(CN4CC5(C4)CN(C(=O)C4(c6ccccc6)CCN(c6cnnc(-c7ccccc7O)c6)CC4)C5)CC3)cc2)C(=O)N1	SMARCA4 (Homo sapiens)	%	44.6
N#CC1(CN2CCN(c3ccc([C@@H]4CCC(=O)NC4=O)cc3)CC2)CC12CCN(C(=O)C1(c3ccccc3)CCN(c3cnnc(-c4ccccc4O)c3)CC1)CC2 (mixture of isomers)	SMARCA4 (Homo sapiens)	%	41.4

Exercise: Lab request: please report Dmax under test system SMARCA4 (Homo sapiens) for Cc1ccccc1OC1(C(=O)N(C)C2CCN(C(=O)CN3CCC(c4ccc([C@@H]5CCC(=O)NC5=O)cc4)CC3)CC2)CCN(c2cnnc(-c3ccccc3O)c2)CC1 (racemic)
Key: 75.8

Exercise: Lab request: please report Dmax under test system SMARCA4 (Homo sapiens) for Cn1c(=O)n(C2CCC(=O)NC2=O)c2ccc(N3CCC(CN4CCC5(CC4)CN(C(=O)C4(c6ccccc6)CCN(c6cnnc(-c7ccccc7O)c6)CC4)C5)CC3)cc21 (racemic)
Key: 82.2

Exercise: Lab request: please report Dmax under test system SMARCA4 (Homo sapiens) for O=C1CCC(c2ccc(OCC3CCN(C(=O)C4CCN(C(=O)C5(c6ccccc6)CCN(c6cnnc(-c7ccccc7O)c6)CC5)CC4)CC3)cc2)C(=O)N1 (racemic)
Key: 15.2

Exercise: Lab request: please report Dmax under test system SMARCA4 (Homo sapiens) for CN(C(=O)C1(c2ccccc2)CCN(c2cnnc(-c3ccccc3O)c2)CC1)C1CCN(CCC2CCN(c3ccc(C4CCC(=O)NC4=O)c(F)c3)CC2)CC1 (racemic)
Key: 59.6

Exercise: Lab request: please report Dmax under test system SMARCA4 (Homo sapiens) for O=C1CCC(c2ccc(N3CCC4(CCN(CC5CCN(C(=O)C6(c7ccccc7)CCN(c7cnnc(-c8ccccc8O)c7)CC6)CC5)C4)CC3)cc2)C(=O)N1 (racemic)
Key: 49.3

Exercise: Lab request: please report Dmax under test system SMARCA4 (Homo sapiens) for CC1(C(=O)N2CCN(c3ccc(C4CCC(=O)NC4=O)cc3)CC2)CCN(C(=O)C2(c3ccccc3)CCN(c3cnnc(-c4ccccc4O)c3)CC2)CC1 (racemic)
Key: 19.3

---

- Tgt: SMARCA2 (Homo sapiens, UniProt P51531)
- Construct: endogenous in cells
- Method: SMARCA2 Cellular Degradation Assay (Western blot analysis on Jess platform)
- Format: cell-based
- Experimental context: ratio DC50 SMARCA4 / DC50 SMARCA2
Listing of recorded Fold Selectivity SMARCA4/2 by entry.

Compound	Fold Selectivity SMARCA4/2
O=C1CC[C@H](c2ccc(N3CCC(CCN4CCC(C(=O)NCC5(c6ccccc6)CCN(c6cnnc(-c7ccccc7O)c6)CC5)C5CC54)CC3)cc2)C(=O)N1 (mixture of isomers)	11
O=C1CCC(c2ccc(N3CCC4(CCN(CC5CCN(C(=O)C6(c7ccccc7)CCN(c7cnnc(-c8ccccc8O)c7)CC6)CC5)C4)CC3)cc2)C(=O)N1 (racemic)	245

Okay, now this compound:
Exercise: // query Fold Selectivity SMARCA4/2 value for entry O=C1CC[C@H](c2ccc(N3CCC(CN4CC5CCCC(C4)N(C(=O)C4(c6ccccc6)CCN(c6cnnc(-c7ccccc7O)c6)CC4)C5)CC3)cc2)C(=O)N1 (stereo partly drawn)
Key: 1

---

Listing of recorded Dmax by entry.
- Tgt: SMARCA4 (Homo sapiens)
- Construct: endogenous in cells
- Method: Cellular degradation assay, SMARCA4 (Table 1)
- Assay type: cell-based
Numeric only. Scale: %

Molecule	Endpoint unit	Dmax
O=C1CCC(c2ccc(N3CCC(CNC4CCN(C(=O)C5(c6ccccc6)CCN(c6cnnc(-c7ccccc7O)c6)CC5)CC4)CC3)cc2)C(=O)N1 (racemic)	%	32

Exercise: // query Dmax value for entry CC(C)c1cc(C2(C(=O)N3CC4(CN(CCC5CCN(c6ccc(C7CCC(=O)NC7=O)cc6)CC5)C4)C3)CCN(c3cnnc(-c4ccccc4O)c3)CC2)no1 (racemic)
Key: 21.9

Exercise: // query Dmax value for entry O=C1CCC(c2ccc(N3CCC(CN4CC5(C4)CN(C(=O)C4(c6cccc(Cl)c6)CCN(c6cnnc(-c7ccccc7O)c6)CC4)C5)CC3)cc2)C(=O)N1 (racemic)
Key: 56.5

Exercise: // query Dmax value for entry Cc1cc(C2(C(=O)N(C)C3CCN(CCC4CCN(c5ccc(C6CCC(=O)NC6=O)cc5)CC4)CC3)CCN(c3cnnc(-c4ccccc4O)c3)CC2)on1 (racemic)
Key: 20.2

Exercise: // query Dmax value for entry Cn1c(=O)n([C@H]2CCC(=O)NC2=O)c2cccc(N3CCC(C(=O)N4C[C@@H]5[C@H](C4)[C@H]5C(=O)NCC4(c5ccccc5)CCN(c5cnnc(-c6ccccc6O)c5)CC4)CC3)c21 (racemic)
Key: 75.4

Exercise: // query Dmax value for entry COc1cccc(C2(C(=O)N(C)C3CCN(CCC4CCN(c5ccc([C@H]6CCC(=O)NC6=O)cc5)CC4)CC3)CCN(c3cnnc(-c4ccccc4O)c3)CC2)c1
Key: 54

Exercise: // query Dmax value for entry O=C1CCC(c2ccc(N3CCC(F)(CN4CCC(NC(=O)C5(c6ccccc6)CCN(c6cnnc(-c7ccccc7O)c6)CC5)CC4)CC3)cc2)C(=O)N1 (racemic)
Key: 57.7

Exercise: // query Dmax value for entry O=C1CCC(c2ccc(N3CCC(CN4CC5(C4)CN(CC4(c6ccccc6)CCN(c6cnnc(-c7ccccc7O)c6)CC4)C5)CC3)cc2)C(=O)N1 (racemic)
Key: 77.5

Exercise: // query Dmax value for entry COC1(C(=O)N(C)C2CCN(CCC3CCN(c4ccc(C5CCC(=O)NC5=O)c(F)c4)CC3)CC2)CCN(c2cnnc(-c3ccccc3O)c2)CC1 (racemic)
Key: 32.2

Exercise: // query Dmax value for entry O=C1CC[C@H](c2ccc(N3CCC(CCN4CCC(N(C(=O)C5(c6ccccc6)CCN(c6cnnc(-c7ccccc7O)c6)CC5)C5CC5)CC4)CC3)cc2)C(=O)N1
Key: 69.2

Exercise: // query Dmax value for entry O=C1CCC(c2ccc(N3CCC(CN4CC5(C4)CN(C(=O)C4(c6cccnc6)CCN(c6cnnc(-c7ccccc7O)c6)CC4)C5)CC3)cc2)C(=O)N1 (racemic)
Key: 30.6
